Where do these numbers come from? They come from patent US8658604B2.

Tested on: human red blood cells (hRBC)
Assay: Hemolysis
Where a SMILES comes first, the peptide text is derived from it.
measured.property: Hemolysis at 100 μM % (%)
Write down the numeric answer in % and omit the unit.

Determine from records and report Hemolysis at 100 μM % for CCCC[C@@H]1NC(=O)[C@H]([C@@H](C)O)NC(=O)[C@@H]2CSSC[C@H](NC(=O)[C@H]([C@@H](C)CC)NC(=O)[C@@H]3CCCN3C(=O)[C@@H]3CCCN3C(=O)[C@H](CC(=O)O)NC(=O)[C@H](CO)NC1=O)C(=O)N[C@@H](Cc1ccc(O)cc1)C(=O)N1CCC[C@@H]1C(=O)N1CCC[C@H]1C(=O)N[C@@H](Cc1ccccc1)C(=O)N2 [Ex. 60] (HELM PEPTIDE1{F.C.T.[Nle].S.D.P.P.I.C.Y.[dP].P}$PEPTIDE1,PEPTIDE1,2:R3-10:R3|PEPTIDE1,PEPTIDE1,1:R1-13:R2$$$V2.0)
0
